Recorded abundance fitness by entry
B1: Homeobox protein cut-like 1, residues 548 to 629; numbered along this chain, P39880 (parent)
chain: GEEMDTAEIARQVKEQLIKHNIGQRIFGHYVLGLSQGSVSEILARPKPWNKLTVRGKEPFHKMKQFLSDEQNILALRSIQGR

# Variants of: B1
# Test description: abundance fitness (aPCA) (normalised: wild type 0, dead -1); higher = more abundant; growth selection in yeast, the domain comes from the species named
# Test conditions: Homo sapiens
A bare number is all that is needed in reply.

Use the examples below as a reference point.
>>> quantitative_readout("H61K")
0.013
>>> quantitative_readout("G33V")
-0.895
>>> quantitative_readout("R45C")
-0.001
>>> quantitative_readout("F60A")
-0.944
>>> quantitative_readout("A10P")
-0.744

# input Sample G28W — what was its abundance fitness?
# output -0.764

# input Sample K47A — what was its abundance fitness?
# output -0.116

# input I'd like to know its abundance fitness. The variant in question is L76N
# output -0.856

# input Look at this variant and give its reported abundance fitness. D5W
# output -0.782

# input Tell me the measured abundance fitness of F60Y , please.
# output 0.019

# input Name the recorded abundance fitness for E58G .
# output -0.35

This collection of values is drawn from the Human Domainome abundance scans (Beltran et al. 2025).
